Quick list: protein stability index per entry.
Assay: protein stability index of a GFP-peptide fusion (yeast GPS) (PSI 1-4); higher = more stable; sorted into four equal gates, so the index is relative within each strain
Settings: pdr5∆

residues	protein stability index
YTKETYQSRGIDAMKAV [RPN6]	2.86
IHQYLFQEGVVVAKKDF [RPS10A]	2.08
EKGLNELSIRDVTHTLG [SMC4]	2.42
LRLRISRKRNEEEDAKN [RPL31A]	2.39
MDHEEARRKHVSGKILG [RPS22A]	2.65
ASAGSKEGASTNWDDHA [YMR153W/NUP53]	3.49
LLSIKLPGKVNTKEEFA [SNF5]	1.82
VVDFLKRNGSTLEQKVN [FAS1]	3.03
KDDMKVDDAIELALKTL [PRE9]	3.52
MVATVKRTIRIKTQQHI [TAF14]	1.95
PIPSSETKADGILLETI [RRP6]	2.36
HVLKTVDYGGAEWSLVR [SNU114]	3.42
NQMGMGTNNGMSMGGGV [YOR098C/NUP1]	3.15
SELIRTTLDAEKVFTQG [FAS1]	3.16
IGTKRFDSEKSGDREVQ [RPT5]	3.51
NPNSTAITADLGSSEAE [YGL172W/NUP49]	2.4
QRDLGLYVVGLFDTYHA [RRP6]	2.53
SVEEVILERAYKKLDID [SNF2]	3.07
NSLSSNLSSLIVEINNV [YJL041W/NSP1]	2.58
KRSQKKHKKKHLKHENA [RPB4]	2.96
HLLSINYGEKEERKRWA [PCI8]	3.13
TKSGATTSEKQEVTNEA [GAL11]	3.52
DVLKENNDADKGRSYAY [RIP1]	3.5
ELEMIGGTNEDDFTDAI [YCS4]	3.2
PIPIPAFADRLGQYVQA [PRE10]	1.95
AKQAKIRAGEFDVVLTT [SNF2]	3.3
NILNMSMNNDFQQQQQQ [PGD1]	3.04
LLHETNDSFKGLITNKM [PRP8]	2.8
FKRNAVFVGTIFAGAFV [QCR9]	1.58
SDPNNQSLNEMVKLIVM [YJL039C/NUP192]	2.74
GTIKKIEQFAMRRNSKI [POP5]	2.73
CISLGSTKLSRPFDSFG [ITC1]	2.93
ASVGDILKTLERSICAL [YML031W/NDC1]	2.94
CITLDQLAVRAPKGQNT [RPL18A]	3.39
QPAQPRESRIVSTEGNV [RPL21A]	2.83
LLSKKHGQLKLSIQYMI [RPN5]	1.96
STMTEPVKQSFIRKYIN [GAL11]	2.2
EGKVTKLRRECSNPTCG [RPS31]	3.16
TAVATLLKELSKNAQFI [SMC3]	2.66
IVISLKNTMFEKSDALV [SMC1]	2.36
NNESSDDMDIDEVNDRS [PCI8]	3.17
NVEMEEDVLVNQILMSV [RPL1A]	3.14
WNVEKFKKDFEVNISSL [RPC40]	2.98
KLQGLYENIPIYATFLN [YDL116W/NUP84]	1.25
NNNNNNNDDNGNNNNNN [MED2]	3.28
DMLKYKEDEPVVARRSN [ITC1]	2.42
IVQAKEPNLAAQQDSTN [ECM29]	2.88
SVFKGGMQNLIKKKKKK [SRP14]	3.05
TRFEVELEFIQSLANIQ [SOH1]	2.29
TSKTVSNQFKRSLATAV [COR1]	2.32
LANWFLEVYASGNPNAT [YML031W/NDC1]	2.17
TAPANTTDANGSKENYQ [MED2]	2.06
DEELVSHFVSAVSTIAS [RPP0]	3.12
DFDDFLKLGLVEYLDVN [RET1]	3.07
SQSSAAAGASVDDKRRN [RPN6]	3.41
LGRVRNHFIFNVESAGA [RPC40]	1.5
EKLNKTDENTPSADGAD [ITC1]	3.29
LAGMDVEDALDKDSTKE [FAS2]	3.72
GEMVGVLAAQSIGEPAT [RPO21]	2.55
AFADRLGQYVQAHTLYN [PRE10]	1.95

###

Assay: protein stability index of a GFP-peptide fusion (yeast GPS) (PSI 1-4); higher = more stable; sorted into four equal gates, so the index is relative within each strain
Conditions: san1∆
Quick list: protein stability index per entry.

residues	protein stability index
YCDKNFRENMSKEETVD [PRE3]	3.04
ITIFSPEGRLYQVEYAF [SCL1]	2.1
LSLTAVPSFLRPDITMY [GRR1]	2.18
QFNATINPESREIVMPA [ITC1]	1.7
SLFHIVVDTEETATLIM [SMC3]	1.68
SKLKEEEAALLIKERQE [ESC2]	2.83
GSNQKPKYEPPVQSKFG [RPT2]	2.34
VLEDCRHLPMYTEFIDS [ITC1]	2.77
VKEEYDIWQSRDQGNDS [YIL149C/MLP2]	3.33
FEIQGVPPMKLAYSKIV [YMR129W/POM152]	1.53
LEGETDPLRIAMKELAE [RPO26]	3.27
VSDSNDDVRRAAVIALG [RPN2]	2.7
NLQGDLQAIQEKLNKTD [ITC1]	3.33
LEEQQQLEDESSRLEFV [YML103C/NUP188]	3.39
ESKLSLETLFNRWHSES [FAS2]	3.1
YNLLVKISLHKREYLEV [RPN5]	1.34
TNNEQLQQELATTQDQV [NUT2]	3.11
RLTKQAFDWVLSNIEAQ [RPO21]	3.19
NLQAKPLVGKPKTELTK [YAR002W/NUP60]	2.7
LKFAVQVDKVTKEKVNG [RPL26A]	2.71
KAERVEDQKVVDKALIA [RPL6A]	3.4
VLVVRGSKKGQEGKISS [RPL26A]	3.06
NFKDMSHVNKYGLIRGL [PRP8]	2.19
HAQLLLSDRITGNFIIP [PRP8]	2.37
NSADVDMDAQGRSDSNT [YGL100W/SEH1]	3.1
EQVLSAAATFPIAQPAT [RPL13A]	1.74
TINKAVQVKVLGKYEFS [ESC2]	1.89
CSHIFTSDQKNKRTQFS [RPB9]	2.47
DFYTRHHFTCEITGTSC [ITC1]	1.51
DTVDRLIIKYQKYWESM [GAL11]	2.62
SRSNFQGKHTKFENDEL [LRP1]	3.02
FERFPSPSTSANVPSTA [RPN4]	1.56
HHELVPKHIRLSSDEKR [RPB5]	2.82
MVHREFLKLANGGKFSK [RGR1]	3.14
SFQKNSLHNTEKIMENK [AAR2]	2.93
VKKAVTVHSKSRTRAHA [RPL19A]	2.67
NEEINKKSLEEDDEFED [SEM1]	2.9
LASEVGDPALVYKFMSL [ECM29]	2.34
VGRFSTISSADFIQNVG [ECM29]	3.03
QNKLFYITNADDSTKFQ [SIR3]	3.01
PPETKLPYPTYWSDKKA [SNF5]	3.15
ETSCDNYHPMNIDETSD [SMC4]	3.15
DSSYQDIFAVNLEESSK [RET1]	2.29
AISQSLRDESLTVDNLS [PRE5]	3.33
LAIDNMYILGMCVSKGN [YCG1]	2.27
IHFADVAHITTKSPAYP [RGR1]	2.55
LREEIFIANEGVHTGQF [RPL2A]	2.92
NNNNKSINKNNKEMHTD [SSN2]	2.75
NHTAHNQTRKAHRNGIK [RPL29]	2.32
LDSNNNNSNSNNNDNNN [SWI1]	2.79
GTIKKIEQFAMRRNSKI [POP5]	2.6
NKGLVVSPYDYNHKRVS [DIB1]	1.61
KDDMKVDDAIELALKTL [PRE9]	3.18
KKDRATGDADEPELRVL [RPO21]	3.39
NNESSDDMDIDEVNDRS [PCI8]	3.05
YEEFRDVAIENNTLSRY [RRP43]	3.18
VAFLDNDLGKFIPNKQL [RPN7]	2.83
LRSRLQQQQQQQQQTSP [SNF5]	2.76
KVKKPLKYLSVEEVIKL [PRE7]	2.75
MCQNPMQKPVPFVPVLD [FAS1]	1.29

###

Experiment: protein stability index of a GFP-peptide fusion (yeast GPS) (PSI 1-4); higher = more stable; sorted into four equal gates, so the index is relative within each strain
Settings: doa10∆
Rule: protein stability index under 2 gives NOT MET, otherwise MET.

residues	label class
AKTFGASVRIFLYPSNI [RPL33A]	MET
STANPNIKLLNNRMGSY [POP1]	MET
AFAFCIPVYCFSHPAHQ [YCG1]	NOT MET
SSAKRSKNTAVSKVQKR [SRP72]	MET
PPPGLDELETKAEKKVE [PRP8]	MET
VIFNDNVTETYSVYLIH [SIR3]	MET
RKINLFYLYMLVQKFGG [SWI1]	NOT MET
QPQQQLGDMENNLEKYP [RTT102]	MET
HAQLLLSDRITGNFIIP [PRP8]	MET
RVWAEYATKRQEAIQQN [PRP8]	MET
TYSFIDNDRFNVVGKLI [YML103C/NUP188]	MET
SHNWAAKAKRRHTTGTG [RPL37B]	MET
HHFTCEITGTSCLTFFQ [ITC1]	NOT MET
TTSVDVMLKGIVTALLE [SRP54]	NOT MET
